- Experiment Notes: Toxicity in mice administered subcutaneously
- Cond: mouse, in vivo, sc
Readout Name: Death dose

O=C(CCCCCCC(=O)N1CC[N+]2(CCCC2)CC1)N1CC[N+]2(CCCC2)CC1.[Br-].[Br-] ... 0.2 mg/kg
O=C(CCC(=O)N1CC[N+]2(CCCC2)CC1)N1CC[N+]2(CCCC2)CC1.[Br-].[Br-] ... 20 mg/kg
O=C(CC(=O)N1CC[N+]2(CCCC2)CC1)N1CC[N+]2(CCCC2)CC1.[Br-].[Br-] ... 40 mg/kg

Batch of 3 compounds: report Death dose for each.
1. O=C(CCCCC(=O)N1CC[N+]2(CCCC2)CC1)N1CC[N+]2(CCCC2)CC1.[Br-].[Br-]
2. O=C(CCCCCC(=O)N1CC[N+]2(CCCC2)CC1)N1CC[N+]2(CCCC2)CC1.[Br-].[Br-]
3. O=C(CCCC(=O)N1CC[N+]2(CCCC2)CC1)N1CC[N+]2(CCCC2)CC1.[Br-].[Br-]

## Result
1: 2 mg/kg; 2: 0.2 mg/kg; 3: 20 mg/kg
